For each record, write down the corresponding Emax.
assay target: F508delCFTR (Homo sapiens, UniProt P13569, DEL508-508)
Construct: expressed in transfected cells; host or cells: CFBE41o- human lung derived epithelial cells (CFBE41o-F508delCFTR-HRP), doxycycline-inducible
Sequence (P13569 with tags, fused parts or gaps DEL508-508): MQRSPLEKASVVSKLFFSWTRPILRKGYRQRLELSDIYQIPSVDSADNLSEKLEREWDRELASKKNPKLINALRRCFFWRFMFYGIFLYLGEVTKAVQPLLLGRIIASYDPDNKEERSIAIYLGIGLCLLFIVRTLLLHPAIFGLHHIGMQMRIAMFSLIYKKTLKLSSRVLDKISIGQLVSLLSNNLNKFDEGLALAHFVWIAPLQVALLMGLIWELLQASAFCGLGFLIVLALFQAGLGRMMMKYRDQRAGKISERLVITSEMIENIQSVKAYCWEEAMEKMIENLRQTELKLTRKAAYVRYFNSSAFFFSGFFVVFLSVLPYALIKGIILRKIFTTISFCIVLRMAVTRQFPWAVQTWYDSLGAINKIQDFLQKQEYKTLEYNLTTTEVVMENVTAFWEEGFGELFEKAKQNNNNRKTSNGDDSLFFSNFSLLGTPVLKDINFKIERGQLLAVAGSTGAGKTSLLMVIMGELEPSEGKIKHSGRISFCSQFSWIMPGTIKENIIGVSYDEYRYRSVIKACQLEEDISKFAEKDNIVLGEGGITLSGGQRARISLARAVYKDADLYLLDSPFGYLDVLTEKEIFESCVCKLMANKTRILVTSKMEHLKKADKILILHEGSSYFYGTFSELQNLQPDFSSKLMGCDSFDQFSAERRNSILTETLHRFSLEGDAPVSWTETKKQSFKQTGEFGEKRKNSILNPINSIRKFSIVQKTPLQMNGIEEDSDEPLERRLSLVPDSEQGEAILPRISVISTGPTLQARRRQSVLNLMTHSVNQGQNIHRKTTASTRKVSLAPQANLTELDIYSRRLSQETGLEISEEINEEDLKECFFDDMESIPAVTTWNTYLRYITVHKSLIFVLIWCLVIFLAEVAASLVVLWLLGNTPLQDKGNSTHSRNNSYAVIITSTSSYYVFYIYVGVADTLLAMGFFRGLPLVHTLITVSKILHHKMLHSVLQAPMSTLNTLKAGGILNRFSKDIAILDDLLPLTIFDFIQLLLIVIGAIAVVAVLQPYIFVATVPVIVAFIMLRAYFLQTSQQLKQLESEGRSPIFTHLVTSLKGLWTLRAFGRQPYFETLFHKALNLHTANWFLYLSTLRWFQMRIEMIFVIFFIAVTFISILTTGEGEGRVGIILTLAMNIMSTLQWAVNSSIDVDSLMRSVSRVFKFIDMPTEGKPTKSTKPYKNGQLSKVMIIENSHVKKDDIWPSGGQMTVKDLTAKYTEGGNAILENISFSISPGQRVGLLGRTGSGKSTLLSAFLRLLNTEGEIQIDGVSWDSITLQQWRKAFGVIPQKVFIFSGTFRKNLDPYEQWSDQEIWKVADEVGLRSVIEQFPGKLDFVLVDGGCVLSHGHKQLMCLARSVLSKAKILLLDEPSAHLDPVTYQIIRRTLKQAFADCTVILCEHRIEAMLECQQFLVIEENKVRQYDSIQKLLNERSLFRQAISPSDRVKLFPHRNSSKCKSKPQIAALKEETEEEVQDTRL
protocol: Cell Surface Expression-Horse Radish Peroxidase (CSE-HRP) Assay;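 as to Maximum % activity (without co-corrector): % of on-plate positive control chromenyl benzoic acid corrector at 2 or 3 µM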
Format: cell-based
assay context: without co-corrector; maximum at any tested concentration; read-out: Maximum % activity (without co-corrector)

Prompt line: For O=C(NS(=O)(=O)c1ccccc1OC(F)(F)F)C1(c2ccc(Cl)cc2Cl)CC1 [Example III-13] , write its Emax.
Response line: < 50%

Prompt line: Give a short answer stating reported Emax for O=C(NS(=O)(=O)Cc1ccccc1)C1(c2cccc(Cl)c2)CC1 [Example III-109] .
Response line: < 50%

Prompt line: Recall and state the measured Emax for COc1ccc(C2CCC2)cc1C1(C(=O)NS(=O)(=O)c2cccc3[nH]ccc23)CC1 [Example I-55] .
Response line: > 150%

Prompt line: Report Emax, nothing else, for this compound: Cc1ccc2c(S(=O)(=O)NC(=O)C3(c4cc(C5CCC5)cnc4OC(C)C)CC3)cccc2n1 [Example GI-23]
Response line: > 150%

Prompt line: Hello, please tell me recorded Emax for this one: COc1ccc(C(C)C)cc1C1(C(=O)NS(=O)(=O)c2cccc3c2CCCN3)CC1 [II-26]
Response line: > 150%

Prompt line: Return Emax (reported value) for this compound: O=C(NS(=O)(=O)Cc1ccccc1)C1(c2ccc(Cl)cc2)CC1 [Example III-114]
Response line: < 50%

Prompt line: Give Emax for COc1cccc(-c2cnn(C)c2)c1C1(C(=O)NS(=O)(=O)c2cccc3ncccc23)CC1 [Example III-122]
Response line: > 150%

Prompt line: Entry COc1ccc(C2CC2)cc1C1(C(=O)NS(=O)(=O)c2cccc3ccccc23)CC1 [Example I-12] needs its Emax filled in; supply it.
Response line: > 150%

Prompt line: State its Emax: CCOc1ccc(C(C)(C)COC)cc1C1(C(=O)NS(=O)(=O)c2cccc3ncccc23)CC1 [Example I-101]
Response line: > 150%

Prompt line: Determine its reported Emax: O=C(NS(=O)(=O)c1ccccc1)C1(c2ccccc2Cl)CC1 [Example III-32]
Response line: < 50%

Prompt line: Give Emax for the following compound: COc1cc(C2(C(=O)NS(=O)(=O)c3cccc4[nH]ncc34)CC2)c(OCC(C)C)cn1 [II-91]
Response line: > 150%

* * *

assay target: F508delCFTR (Homo sapiens, UniProt P13569, DEL508-508)
Construct: expressed in transfected cells; host or cells: CFBE41o- human lung derived epithelial cells (CFBE41o-F508delCFTR-HRP), doxycycline-inducible
protocol: Cell Surface Expression-Horse Radish Peroxidase (CSE-HRP) Assay
Format: cell-based
assay context: test compound with co-corrector; maximum at any tested concentration
experimental readout: Maximum % activity (with co-corrector)

Reference set (5 entries):
line_notation=COCCOc1ncc(C2CCC2)cc1C1(C(=O)NS(=O)(=O)c2cccc3ncccc23)CC1 assay_target="F508delCFTR (Homo sapiens, UniProt P13569, DEL508-508)" data_value="+++ (≥350)"
line_notation=Cc1cnc(OCC2CC2)c(C2(C(=O)NS(=O)(=O)c3cccc4[nH]ccc34)CC2)c1 assay_target="F508delCFTR (Homo sapiens, UniProt P13569, DEL508-508)" data_value="+++ (≥350)"
line_notation=CCc1ccncc1C1(C(=O)NS(=O)(=O)c2cccc3c2CCCN3)CC1 assay_target="F508delCFTR (Homo sapiens, UniProt P13569, DEL508-508)" data_value="++ (≥150 and <350)"
line_notation=CC(C)Oc1ncc(N2CCC2)cc1C1(C(=O)NS(=O)(=O)c2cccc3[nH]ccc23)CC1 assay_target="F508delCFTR (Homo sapiens, UniProt P13569, DEL508-508)" data_value="+++ (≥350)"
line_notation=COCCOc1ncc(C)cc1C1(C(=O)NS(=O)(=O)c2cccc3ncccc23)CC1 assay_target="F508delCFTR (Homo sapiens, UniProt P13569, DEL508-508)" data_value="++ (≥150 and <350)"

Prompt line: Complete the entry with Maximum % activity (with co-corrector) for `COc1cnc(OCC2CC2)c(C2(C(=O)NS(=O)(=O)c3cccc4[nH]ccc34)CC2)c1`
Response line: +++ (≥350)

Prompt line: Complete the entry with Maximum % activity (with co-corrector) for `CCc1cnc(N(C)C)c(C2(C(=O)NS(=O)(=O)c3cccc4nc(C)ccc34)CC2)c1`
Response line: +++ (≥350)

Prompt line: Read off the recorded Maximum % activity (with co-corrector) for `COCCOc1ncc(C2CCC2)cc1C1(C(=O)NS(=O)(=O)c2cccc3nc(C)ccc23)CC1`
Response line: +++ (≥350)

Prompt line: For the molecule `COC1CCN(c2ncc(C3CCC3)cc2C2(C(=O)NS(=O)(=O)c3cccc4[nH]ccc34)CC2)CC1` , give its measured Maximum % activity (with co-corrector) value.
Response line: +++ (≥350)

* * *

assay target: F508delCFTR (Homo sapiens, UniProt P13569, DEL508-508)
Construct: expressed in transfected cells; host or cells: CFBE41o- human lung derived epithelial cells (CFBE41o-F508delCFTR-HRP), doxycycline-inducible
protocol: Cell Surface Expression-Horse Radish Peroxidase (CSE-HRP) Assay
Format: cell-based
assay context: with co-corrector; maximum at any tested concentration
experimental readout: Maximum % activity (with co-corrector)

compound="O=C(NS(=O)(=O)c1cccc2ccccc12)C1(c2cccc(Br)c2)CC1 [Example III-92]" data_value="+++ (≥350)"
compound="COc1ncc(C2CCC2)cc1C1(C(=O)NS(=O)(=O)c2cccc3ccn(C)c23)CC1 [Example I-20]" data_value="+++ (≥350)"
compound="O=C(NS(=O)(=O)c1ccccc1OC(F)(F)F)C1(c2ccc(Cl)cc2Cl)CC1 [Example III-13]" data_value="++ (≥150 and <350)"
compound="COc1ccc(CO)cc1C1(C(=O)NS(=O)(=O)c2cccc3ncccc23)CC1 [II-48]" data_value="++ (≥150 and <350)"
compound="O=C(NS(=O)(=O)Cc1ccccc1)C1(c2ccccc2Cl)CC1 [Example III-113]" data_value="++ (≥150 and <350)"

Prompt line: // fetch Maximum % activity (with co-corrector); item: O=C(NS(=O)(=O)c1ccccc1)C1(c2ccc(F)cc2)CC1 [Example III-31] ; system: F508delCFTR (Homo sapiens, UniProt P13569, DEL508-508)
Response line: ++ (≥150 and <350)

* * *

assay target: F508delCFTR (Homo sapiens, UniProt P13569, DEL508-508)
Construct: expressed in transfected cells; host or cells: CFBE41o- human lung derived epithelial cells (CFBE41o-F508delCFTR-HRP), doxycycline-inducible
protocol: Cell Surface Expression-Horse Radish Peroxidase (CSE-HRP) Assay;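 as to EC50 (with co-corrector): co-corrector chromenyl benzoic acid corrector at 2 or 3 µM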
Format: cell-based
assay context: with co-corrector; read-out: EC50 (with co-corrector)
Please respond with reported EC50 for every item in the list.

Prompt line: Read off the recorded EC50 for CC(C)COc1ccc(N(C)C)c(C2(C(=O)NS(=O)(=O)c3cccc4ncccc34)CC2)n1 [Example I-108]
Response line: < 3 µM

Prompt line: Give reported EC50 value for CC(C)c1nc(C(F)(F)F)ccc1C1(C(=O)NS(=O)(=O)c2cccc3c2CCCN3)CC1 [Example GI-9]
Response line: < 3 µM

Prompt line: Provide measured EC50 value, entry: COC(=O)c1csc(S(=O)(=O)NC(=O)C2(c3ccc(Cl)cc3Cl)CC2)c1OC [Example III-11]
Response line: > 10 µM

Prompt line: Answer with reported EC50 of COc1ccc(C)cc1C1(C(=O)NS(=O)(=O)c2cccc3ncccc23)CC1 [Example I-44]
Response line: < 3 µM

Prompt line: Quickly give me recorded EC50 for COc1ccc(OC)c(C2(C(=O)NS(=O)(=O)c3cccc4ncccc34)CC2)c1 [Example I-29]
Response line: < 3 µM

Prompt line: Identify measured EC50 corresponding to CCOC(C)(C)c1ccc(OC)c(C2(C(=O)NS(=O)(=O)c3cccc4ncccc34)CC2)c1 [II-96]
Response line: < 3 µM

Prompt line: Given the compound O=C(NS(=O)(=O)c1cccc(OC(F)(F)F)c1)C1(c2ccc(Cl)cc2Cl)CC1 [Example III-64] , write its reported EC50.
Response line: > 10 µM

Prompt line: Recall and state the measured EC50 for COc1ncc(C2CCC2)cc1C1(C(=O)NS(=O)(=O)c2cccc3ccccc23)CC1 [Example I-5] .
Response line: < 3 µM

Prompt line: Please look at this compound and report its EC50: COc1ncc(C2CCC2)cc1C1(C(=O)NS(=O)(=O)c2cccc3c2CCCN3)CC1 [Example I-6]
Response line: < 3 µM

Prompt line: Indicate the recorded EC50 value for this compound: COc1ccc(C)c(OC)c1C1(C(=O)NS(=O)(=O)c2cccc3ccc(C)nc23)CC1 [II-39]
Response line: < 3 µM

Prompt line: Item Cc1ccc(C)c(C2(C(=O)NS(=O)(=O)c3cccc4[nH]ccc34)CC2)c1 [II-80] : provide EC50
Response line: < 3 µM

Prompt line: Give recorded EC50. CCOc1cccc(OCC)c1C1(C(=O)NS(=O)(=O)c2cccc3ncccc23)CC1 [Example I-66]
Response line: < 3 µM

Prompt line: Dear colleague, please send me the reported EC50 for COc1ccc(C2CCCC2)cc1C1(C(=O)NS(=O)(=O)c2cccc3c2CCCN3)CCC1 [II-21] when you can.
Response line: < 3 µM

Prompt line: Please list EC50 recorded for the compound COc1ncc(C(F)(F)F)cc1C1(C(=O)NS(=O)(=O)c2cccc3ncc(C)n23)CC1 [II-19]
Response line: 3 to 10 µM

Prompt line: Give reported EC50 value for COc1ccc(C(F)(F)F)cc1C1(C(=O)NS(=O)(=O)c2cccc3c2CCCN3)CC1 [II-28]
Response line: < 3 µM

Prompt line: Give me measured EC50, please, for this compound: CO[C@H](C)COc1ccc(C)cc1C1(C(=O)NS(=O)(=O)c2cccc3nc(C)ccc23)CC1 [Example I-116]
Response line: < 3 µM

Prompt line: Quickly give me recorded EC50 for COc1ccc(C)cc1C1(C(=O)NS(=O)(=O)c2cccc3nc(N)ccc23)CC1 [Example I-79]
Response line: < 3 µM

Prompt line: Check the records and state EC50 for CCc1cnc(OC(C)C)c(C2(C(=O)NS(=O)(=O)c3cccc4c3CCCN4)CC2)c1 [Example GI-14]
Response line: < 3 µM

Prompt line: Given CC1(C)CC1(C(=O)NS(=O)(=O)c1ccccc1)c1ccccc1 (centres unmarked) [Example III-61] , respond with its EC50.
Response line: 3 to 10 µM

Prompt line: Tell me its EC50 given Cc1noc(C)c1S(=O)(=O)NC(=O)C1(c2ccc(Cl)cc2Cl)CC1 [Example III-12] as the entry.
Response line: 3 to 10 µM

Prompt line: Return value of EC50 for input COc1ncc(C(F)(F)F)cc1C1(C(=O)NS(=O)(=O)c2cccc3c2CCCN3)CC1 [II-8] , no commentary.
Response line: < 3 µM

Prompt line: Input COC[C@H](C)Oc1ccc(C)cc1C1(C(=O)NS(=O)(=O)c2cccc3ncccc23)CC1 [II-92] , output reported EC50.
Response line: < 3 µM

Prompt line: # return recorded EC50 for input Cc1cccc(C2(C(=O)NS(=O)(=O)c3ccccc3C)CCOCC2)c1 [Example III-82]
Response line: > 10 µM

Prompt line: Item COCC(C)(C)c1ccc(OC)c(C2(C(=O)NS(=O)(=O)c3cccc4nc(C)ccc34)CC2)c1 [II-113] : provide EC50
Response line: < 3 µM

Prompt line: Give the reported EC50 for this compound. COc1ccc(C)c(OC)c1C1(C(=O)NS(=O)(=O)c2cccc3nc(C)ccc23)CC1 [Example I-43]
Response line: < 3 µM

Prompt line: Let me know recorded EC50 for O=C(NS(=O)(=O)Cc1ccccc1)C1(c2ccc(F)cc2)CC1 [Example III-112] , thanks.
Response line: > 10 µM

Prompt line: Give the measured EC50 for COc1ccc(C2(OC)CCC2)cc1C1(C(=O)NS(=O)(=O)c2cccc3nc(C)ccc23)CC1 [II-100]
Response line: < 3 µM

Prompt line: Please list EC50 recorded for the compound COc1nc2ccccc2cc1C1(C(=O)NS(=O)(=O)c2cccc3nc(C)ccc23)CC1 [Example I-75]
Response line: < 3 µM

Prompt line: Entry COc1cccc(C)c1C1(C(=O)NS(=O)(=O)c2cccc3c2CCCN3)CC1 [II-53] needs its EC50 filled in; supply it.
Response line: < 3 µM

From: patent US10829473B2
